These entries and their values trace back to the supplement of paper PMC12494721.

# Tested on: Clostridium sporogenes DSM 1664
# experiment.description: fold change of Tryptamine concentration vs plate DMSO controls (fold change (ratio)); higher = more amine produced, active = hit call of the paper (significant change in both replicates, either direction)
# condition.context: incubation time: 27 h, anaerobic, 37 °C
Where a name gives a salt, the structure may show the parent alone.
met means recorded fold change of Tryptamine concentration is 1 or above; not met means it is below 1.

Solved entries (count: 5):
compound | discrete.label
O=c1oc2cc(O)ccc2s1 [Tioxolone] (20 µM) | met
CN(C)C(=O)Nc1ccc(Cl)c(Cl)c1 (20 µM) | not met
CCOC(=O)C(C)(C)Oc1ccc(Cl)cc1 [Clofibrate] (20 µM) | met
CCCCCN(CCCCC)C(=O)C(CCC(=O)O)NC(=O)c1ccc(Cl)c(Cl)c1 (centres undefined) [Lorglumide sodium salt] (20 µM) | not met
Cc1ccsc1/C=C/C1=NCCCN1C [Morantel tartrate] (20 µM) | not met

[in] fold change of Tryptamine concentration >= 1 for CN1CCN(CCCN2c3ccccc3Sc3ccc(C(F)(F)F)cc32)CC1 [Trifluoperazine dihydrochloride] (20 µM) ?
[out] met

---

# System: Klebsiella aerogenes DSM 30053
# experiment.description: fold change of Putrescine concentration vs plate DMSO controls (fold change (ratio)); higher = more amine produced, active = hit call of the paper (significant change in both replicates, either direction)
# condition.context: incubation time: 27 h, anaerobic, 37 °C
Structures can show the parent of a compound that is named as a salt.
observable: fold change of Putrescine concentration
Lab note: record the figure alone, no unit after it.

In the examples that follow, each entry is paired with its recorded fold change of Putrescine concentration.
compound | assayed.system | recorded.result
COc1ccc2cc([C@H](C)C(=O)O)ccc2c1 [(S)-Naproxen] (20 µM) | Klebsiella aerogenes DSM 30053 | 0.977
Cc1nnc(NS(=O)(=O)c2ccc(N)cc2)s1 [Sulfamethizole] (20 µM) | Klebsiella aerogenes DSM 30053 | 0.981

The recorded fold change of Putrescine concentration for entry O=C1CC[C@@H](C(=O)N2CSC[C@H]2C(=O)O)N1 [Pidotimod] (20 µM) equals 0.992

For reference, reported fold change of Putrescine concentration for CCOc1ccc(Cc2nccc3cc(OCC)c(OCC)cc23)cc1OCC [Ethaverine hydrochloride] (20 µM) stands at 1.01

Notebook: CC(=O)O[C@H]1C[C@@H]2CC[C@@H]3[C@H](CC[C@@]4(C)[C@H]3C[C@H]([N+]3(C)CCCCC3)[C@@H]4OC(C)=O)[C@@]2(C)C[C@@H]1N1CCCCC1 [Vecuronium bromide] (20 µM) , fold change of Putrescine concentration read as 1

The reported value for O=C(O)Cc1csc(-c2ccc(Cl)cc2)n1 [Fenclozic acid] (20 µM) in terms of fold change of Putrescine concentration is 0.985

Value of measured fold change of Putrescine concentration for the entry O=P(O)(O)C(O)(Cn1ccnc1)P(=O)(O)O [Zoledronic acid hydrate] (20 µM) : 1.02

Lab note: CC(CNC1CCCCC1)OC(=O)c1ccccc1 (stereo not given) [Hexylcaine hydrochloride] (20 µM) gave fold change of Putrescine concentration of 0.988

# compound CN1CCC[C@@H]1CCO[C@](C)(c1ccccc1)c1ccc(Cl)cc1 [Clemastine fumarate] (20 µM) ; its fold change of Putrescine concentration = 0.975

Query COC(=O)C1=C(C#N)NC(C)=C(C(=O)OC(C)C)C1c1cccc([N+](=O)[O-])c1 (stereo not given) [Nilvadipine] (20 µM) yields fold change of Putrescine concentration of 0.936

fold change of Putrescine concentration for O=C(Nc1cccc2c(=O)cc(-c3nnn[nH]3)oc12)c1ccc(OCCCCc2ccccc2)cc1 [Pranlukast] (20 µM) is 1.01

Value of measured fold change of Putrescine concentration for the entry COc1c(O[C@@H]2O[C@H](CO)[C@@H](O)[C@H](O)[C@H]2O)cc2c(c1OC)-c1ccc(SC)c(=O)cc1[C@@H](NC(C)=O)CC2 [Thiocolchicoside] (20 µM) : 1.02

# fold change of Putrescine concentration (compound: COc1ccccc1N1CCN(CC(O)COc2cccc3ccccc23)CC1 (stereo not given) [Naftopidil dihydrochloride] (20 µM) ) is 1.01

Briefly, fold change of Putrescine concentration measured for CC(C)Nc1cccnc1N1CCN(C(=O)c2cc3cc(NS(C)(=O)=O)ccc3[nH]2)CC1 [Delavirdine] (20 µM) : 0.906

The compound CCn1cc(C(=O)O)c(=O)c2cnc(N3CCCC3)nc21 [Piromidic acid] (20 µM) showed fold change of Putrescine concentration equal to 1.02

---

# Test system: Klebsiella aerogenes DSM 30053
# experiment.description: fold change of Cadaverine concentration vs plate DMSO controls (fold change (ratio)); higher = more amine produced, active = hit call of the paper (significant change in both replicates, either direction)
# condition.context: incubation time: 27 h, anaerobic, 37 °C
Where a name gives a salt, the structure may show the parent alone.
# fold change of Cadaverine concentration values compiled below

Please review the following examples before continuing.
compound | fold change of Cadaverine concentration
CC1(C)S[C@@H]2[C@H](NC(=O)[C@H](N)c3ccccc3)C(=O)N2[C@H]1C(=O)OC1OC(=O)c2ccccc21 (stereo not given in full) [Talampicillin hydrochloride] (20 µM) | 1.13 (inactive)
CCCCOc1cc(C(=O)NCCN(CC)CC)c2ccccc2n1 [Dibucaine] (20 µM) | 1.03 (inactive)
[S] (20 µM) | 1 (inactive)
COc1cccc2c1C(=O)c1c(O)c3c(c(O)c1C2=O)C[C@@](O)(C(=O)CO)C[C@@H]3O[C@H]1C[C@H](N)[C@H](O)[C@H](C)O1 [Doxorubicin hydrochloride] (20 µM) | 1.02 (inactive)

Field fold change of Cadaverine concentration (entry CC(=O)Nc1ccc(CC(=O)O)cc1 [Actarit] (20 µM) ) reads 1.01 (inactive)

The recorded fold change of Cadaverine concentration for CC[C@H]1OC(=O)[C@H](C)[C@@H](O[C@H]2C[C@@](C)(OC)[C@@H](O)[C@H](C)O2)[C@H](C)[C@@H](O[C@@H]2O[C@H](C)C[C@H](N(C)C)[C@H]2O)[C@](C)(OC)C[C@@H](C)C(=O)[C@H](C)[C@@H](O)[C@]1(C)O [Clarithromycin] (20 µM) is 1.03 (inactive)

Recorded fold change of Cadaverine concentration (compound N=C(N)Nc1ccc(C(=O)Oc2ccc3cc(C(=N)N)ccc3c2)cc1 [Nafamostat Mesylate] (20 µM) ): 1.01 (inactive)

---

# Tested on: Clostridium sporogenes DSM 1664
# experiment.description: growth (OD595) fold change vs plate DMSO controls (fold change (ratio)); higher = more growth
# condition.context: incubation time: 27 h, anaerobic, 37 °C
Structures can show the parent of a compound that is named as a salt.
observable: growth
Output: the number by itself.

molecule | assayed.system | growth
c1ccc(CC2=NCCN2)cc1 [Tolazoline hydrochloride] (20 µM) | Clostridium sporogenes DSM 1664 | 1.05

Value of measured growth for the entry C/C(O)=C(\C#N)C(=O)Nc1ccc(C(F)(F)F)cc1 [Teriflunomide] (20 µM) : 0.938

Input CC1(C)O[C@@H]2C[C@H]3[C@@H]4C[C@H](F)C5=CC(=O)C=C[C@]5(C)[C@@]4(F)[C@@H](O)C[C@]3(C)[C@]2(C(=O)CO)O1 [Fluocinolone acetonide] (20 µM) . Output growth: 1.13

Input C[C@@H]1CCO[C@H]2Cn3cc(C(=O)NCc4ccc(F)cc4F)c(=O)c(O)c3C(=O)N12 [Dolutegravir] (20 µM) . Output growth: 1.06

The reported value for CC(NCCC(c1ccccc1)c1ccccc1)c1ccccc1 (stereo not given) [Fendiline hydrochloride] (20 µM) in terms of growth is 0.961

Record O=c1n(CCCN2CCN(c3cccc(Cl)c3)CC2)nc2ccccn12 [Trazodone hydrochloride] (20 µM) . Reported growth: 1.09

Kindly note the recorded growth for COc1ccc2c(c1)N(C[C@H](C)CN(C)C)c1ccccc1S2 [Methotrimeprazine maleate salt] (20 µM) , which is 1.03

Data point: O=C(Nc1cccc2c(=O)cc(-c3nnn[nH]3)oc12)c1ccc(OCCCCc2ccccc2)cc1 [Pranlukast] (20 µM) ; growth = 1.1

---

# Tested on: Escherichia coli IAI1
# experiment.description: fold change of Cadaverine concentration vs plate DMSO controls (fold change (ratio)); higher = more amine produced, active = hit call of the paper (significant change in both replicates, either direction)
# condition.context: incubation time: 27 h, anaerobic, 37 °C
Counter-ions that a name gives are not always drawn.
observable: fold change of Cadaverine concentration
Lab note: record the figure alone, no unit after it.

compound | recorded.result
CC(=O)N(CC(O)CN(C(C)=O)c1c(I)c(C(=O)NCC(O)CO)c(I)c(C(=O)NCC(O)CO)c1I)c1c(I)c(C(=O)NCC(O)CO)c(I)c(C(=O)NCC(O)CO)c1I (configuration not stated) [Iodixanol] (20 µM) | 0.988
OC[C@@H](O)[C@@H](O)[C@H](O)[C@H](O)CO [Mannitol] (50 µM) | 1.11
OCCN1CCN(CC/C=C2/c3ccccc3Sc3ccc(C(F)(F)F)cc32)CC1 [Flupentixol dihydrochloride cis-(Z)] (20 µM) | 0.852
CO[C@@H]1[C@@H](OC(N)=O)[C@@H](O)[C@H](Oc2ccc3c(O)c(NC(=O)c4ccc(O)c(CC=C(C)C)c4)c(=O)oc3c2C)OC1(C)C [Novobiocin sodium salt] (20 µM) | 1.04
CCOCCn1c(N2CCCN(C)CC2)nc2ccccc21 [Emedastine difumarate] (20 µM) | 1
CC(C)=C/C(C)=N/Nc1nncc2ccccc12 [Budralazine] (20 µM) | 0.963

Moving on to the next compound.
# fold change of Cadaverine concentration of Cc1cccc(C)c1NC(=O)C1CCCCN1C (configuration not stated) [Mepivacaine hydrochloride] (20 µM) = 1
